Where do the numbers come from? From patent US20090163461A1.

study_system: VAChT in the brain (Rattus norvegicus, UniProt Q62666)
Construct: from tissue; host or cells: brain of living rats, tissue counted or sectioned after killing
Sequence (Q62666 1-530): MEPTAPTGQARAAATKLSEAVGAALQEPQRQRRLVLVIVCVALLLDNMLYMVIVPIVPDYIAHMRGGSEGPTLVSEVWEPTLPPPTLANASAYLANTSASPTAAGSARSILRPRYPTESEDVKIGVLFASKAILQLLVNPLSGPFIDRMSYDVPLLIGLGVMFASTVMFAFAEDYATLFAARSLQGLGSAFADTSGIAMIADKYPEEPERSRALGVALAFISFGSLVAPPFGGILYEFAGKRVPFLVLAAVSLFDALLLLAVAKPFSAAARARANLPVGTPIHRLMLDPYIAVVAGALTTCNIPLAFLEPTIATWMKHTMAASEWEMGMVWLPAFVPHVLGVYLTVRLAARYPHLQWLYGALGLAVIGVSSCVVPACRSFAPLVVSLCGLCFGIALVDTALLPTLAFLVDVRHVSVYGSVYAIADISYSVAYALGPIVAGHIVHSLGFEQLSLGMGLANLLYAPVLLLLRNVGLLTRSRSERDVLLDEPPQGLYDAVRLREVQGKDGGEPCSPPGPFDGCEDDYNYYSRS
method: Inhibitory effects of non-radioactive ligands on cerebral distribution of (−)-[^11C]-o-methylvesamicol in rats
Type: in vivo
test_conditions: tracer (−)-[^11C]-o-MeVES 20 MBq i.v. together with ligand 500 nmol per kg, 30 minutes, hippocampus, mean ± S.D. n = 4-6
Record form. Attribute: Radioactivity level (% ID/g) Hippocampus. Fill in for each entry.
One number for each entry, in % ID/g.

Below: 3 molecules and their reported Radioactivity level (% ID/g) Hippocampus.
molecule: OC1CCCCC1N1CCC(c2ccccc2)CC1 (single isomer, unassigned; (-)) [(−)-Vesamicol, 2-(4-Phenylpiperidino)-cyclohexanol]
value_unit: % ID/g
value_reported: 0.66
//
molecule: COc1ccc(CCN2CCN(CCCc3ccccc3)CC2)cc1OC
value_unit: % ID/g
value_reported: 0.84
//
molecule: Cc1ccccc1C1CCN(C2CCCCC2O)CC1 (single isomer, unassigned; (-)) [(−)-o-MeVES]
value_unit: % ID/g
value_reported: 0.71

Quick one: Radioactivity level (% ID/g) Hippocampus of CC(C)=CCN1CCC2(C)c3cc(O)ccc3CC1C2C (single isomer, unassigned; (+)) [(+)-Pentazocine, (+)-pentazocine] ? 2.59

###

study_system: VAChT in the brain (Rattus norvegicus)
Construct: from tissue; host or cells: brain of living rats, tissue counted or sectioned after killing
method: Inhibitory effects of non-radioactive ligands on cerebral distribution of (−)-[^11C]-o-methylvesamicol in rats
Format: in vivo
test_conditions: tracer (−)-[^11C]-o-MeVES 20 MBq i.v. together with ligand 500 nmol per kg, 30 minutes, blood, mean ± S.D. n = 4-6
endpoint: Radioactivity level (% ID/g) Blood
Give bare numbers, in % ID/g.

Below: 3 compounds and their reported Radioactivity level (% ID/g) Blood.
compound: Cc1ccccc1C1CCN(C2CCCCC2O)CC1 (single isomer, unassigned; (-)) [(−)-o-MeVES]
value_unit: % ID/g
Radioactivity level (% ID/g) Blood: 0.14

compound: CC(C)=CCN1CCC2(C)c3cc(O)ccc3CC1C2C (single isomer, unassigned; (+)) [(+)-Pentazocine, (+)-pentazocine]
value_unit: % ID/g
Radioactivity level (% ID/g) Blood: 0.12

compound: OC1CCCCC1N1CCC(c2ccccc2)CC1 (single isomer, unassigned; (-)) [(−)-Vesamicol, 2-(4-Phenylpiperidino)-cyclohexanol]
value_unit: % ID/g
Radioactivity level (% ID/g) Blood: 0.13

Quick one: Radioactivity level (% ID/g) Blood of COc1ccc(CCN2CCN(CCCc3ccccc3)CC2)cc1OC ? 0.14

###

study_system: VAChT in the brain (Rattus norvegicus)
Construct: from tissue; host or cells: brain of living rats, tissue counted or sectioned after killing
method: Inhibitory effects of non-radioactive ligands on cerebral distribution of (−)-[^11C]-o-methylvesamicol in rats
Assay type: in vivo
test_conditions: tracer (−)-[^11C]-o-MeVES 20 MBq i.v. together with ligand 500 nmol per kg, 30 minutes, cerebral cortex, mean ± S.D. n = 4-6
endpoint: Radioactivity level (% ID/g) Cerebral cortex
Give bare numbers, in % ID/g.

compound: CC(C)=CCN1CCC2(C)c3cc(O)ccc3CC1C2C (single isomer, unassigned; (+)) [(+)-Pentazocine, (+)-pentazocine]
study_system: VAChT in the brain (Rattus norvegicus)
value_unit: % ID/g
value_reported: 2.72

// each listed compound needs a value for Radioactivity level (% ID/g) Cerebral cortex
1. Cc1ccccc1C1CCN(C2CCCCC2O)CC1 (single isomer, unassigned; (-)) [(−)-o-MeVES]
2. COc1ccc(CCN2CCN(CCCc3ccccc3)CC2)cc1OC
3. OC1CCCCC1N1CCC(c2ccccc2)CC1 (single isomer, unassigned; (-)) [(−)-Vesamicol, 2-(4-Phenylpiperidino)-cyclohexanol]

1. 0.70
2. 0.62
3. 0.71

###

Record form. Attribute: Radioactivity level (% ID/g) Brain (other than above). Fill in for each entry.
study_system: VAChT in the brain (Rattus norvegicus)
Construct: from tissue; host or cells: brain of living rats, tissue counted or sectioned after killing
method: Inhibitory effects of non-radioactive ligands on cerebral distribution of (−)-[^11C]-o-methylvesamicol in rats
Type: in vivo
test_conditions: tracer (−)-[^11C]-o-MeVES 20 MBq i.v. together with ligand 500 nmol per kg, 30 minutes, brain other than above, mean ± S.D. n = 4-6
Give bare numbers, in % ID/g.

Below: 3 compounds and their reported Radioactivity level (% ID/g) Brain (other than above).
compound: CC(C)=CCN1CCC2(C)c3cc(O)ccc3CC1C2C (single isomer, unassigned; (+)) [(+)-Pentazocine, (+)-pentazocine]
value_unit: % ID/g
value_reported: 2.52
--
compound: OC1CCCCC1N1CCC(c2ccccc2)CC1 (single isomer, unassigned; (-)) [(−)-Vesamicol, 2-(4-Phenylpiperidino)-cyclohexanol]
value_unit: % ID/g
value_reported: 0.69
--
compound: COc1ccc(CCN2CCN(CCCc3ccccc3)CC2)cc1OC
value_unit: % ID/g
value_reported: 0.55

Next item in the queue.
Quick one: Radioactivity level (% ID/g) Brain (other than above) of Cc1ccccc1C1CCN(C2CCCCC2O)CC1 (single isomer, unassigned; (-)) [(−)-o-MeVES] ? 0.63

###

study_system: VAChT (Rattus norvegicus)
method: biochemical
Record form. Attribute: pKi. Fill in for each entry.
Numbers only, as −log10 of the molar value.

Below: 3 compounds and their reported pKi.
compound: COc1ccc(CCN2CCN(CCCc3ccccc3)CC2)cc1OC
pKi: 7.30
--
compound: CC(C)=CCN1CCC2(C)c3cc(O)ccc3CC1C2C (single isomer, unassigned; (+)) [(+)-Pentazocine, (+)-pentazocine]
pKi: 6.50
--
compound: OC1CCCCC1N1CCC(c2ccccc2)CC1 (single isomer, unassigned; (-)) [(−)-Vesamicol, 2-(4-Phenylpiperidino)-cyclohexanol]
pKi: 8.36

Next item in the queue.
Quick one: pKi of Cc1ccccc1C1CCN(C2CCCCC2O)CC1 (single isomer, unassigned; (-)) [(−)-o-MeVES] ? 8.17

###

Record form. Attribute: Radioactivity level (% ID/g) Striate body. Fill in for each entry.
study_system: VAChT in the brain (Rattus norvegicus, UniProt Q62666)
Construct: from tissue; host or cells: brain of living rats, tissue counted or sectioned after killing
method: Inhibitory effects of non-radioactive ligands on cerebral distribution of (−)-[^11C]-o-methylvesamicol in rats
Assay type: in vivo
test_conditions: tracer (−)-[^11C]-o-MeVES 20 MBq i.v. together with ligand 500 nmol per kg, 30 minutes, striate body, mean ± S.D. n = 4-6
Give bare numbers, in % ID/g.

compound: CC(C)=CCN1CCC2(C)c3cc(O)ccc3CC1C2C (single isomer, unassigned; (+)) [(+)-Pentazocine, (+)-pentazocine]
value_reported: 2.39
//
compound: Cc1ccccc1C1CCN(C2CCCCC2O)CC1 (single isomer, unassigned; (-)) [(−)-o-MeVES]
value_reported: 0.71
//
compound: COc1ccc(CCN2CCN(CCCc3ccccc3)CC2)cc1OC
value_reported: 0.61

Next item in the queue.
Quick one: Radioactivity level (% ID/g) Striate body of OC1CCCCC1N1CCC(c2ccccc2)CC1 (single isomer, unassigned; (-)) [(−)-Vesamicol, 2-(4-Phenylpiperidino)-cyclohexanol] ? 0.72

###

Record form. Attribute: Radioactivity level (% ID/g) Medulla oblongata. Fill in for each entry.
study_system: VAChT in the brain (Rattus norvegicus, UniProt Q62666)
Construct: from tissue; host or cells: brain of living rats, tissue counted or sectioned after killing
method: Inhibitory effects of non-radioactive ligands on cerebral distribution of (−)-[^11C]-o-methylvesamicol in rats
Assay type: in vivo
test_conditions: tracer (−)-[^11C]-o-MeVES 20 MBq i.v. together with ligand 500 nmol per kg, 30 minutes, medulla oblongata, mean ± S.D. n = 4-6
Quick note: unit goes after the number.

Below: 3 molecules and their reported Radioactivity level (% ID/g) Medulla oblongata.
molecule: OC1CCCCC1N1CCC(c2ccccc2)CC1 (single isomer, unassigned; (-)) [(−)-Vesamicol, 2-(4-Phenylpiperidino)-cyclohexanol]
value_reported: 0.80 ± 0.08 % ID/g

molecule: CC(C)=CCN1CCC2(C)c3cc(O)ccc3CC1C2C (single isomer, unassigned; (+)) [(+)-Pentazocine, (+)-pentazocine]
value_reported: 2.83 ± 0.45 % ID/g

molecule: Cc1ccccc1C1CCN(C2CCCCC2O)CC1 (single isomer, unassigned; (-)) [(−)-o-MeVES]
value_reported: 0.74 ± 0.09 % ID/g

Quick one: Radioactivity level (% ID/g) Medulla oblongata of COc1ccc(CCN2CCN(CCCc3ccccc3)CC2)cc1OC [SA4503] ? 0.66 ± 0.08 % ID/g
